B1: BTBD1 (parent)
chain: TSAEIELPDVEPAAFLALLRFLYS

variants of: B1; assay: protein stability index of a GFP-peptide fusion (GPS, HEK-293T) (PSI 1-6); higher = more stable; settings: c terminus: a fixed tail appended;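 further: lentivirally expressed fusions sorted by FACS into six bins by GFP to DsRed ratio, PSI derived from sequencing read proportions per bin multiplied by bin number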
Listed next: entries and their corresponding protein stability index.
Form: value (number only, do not type unit).

Y23M    2.27
L7C    1.75
L19P    2.11

Asked: GET /values?readout=protein stability index&item= "D9H"
Given back: 2

Asked: Quick one: protein stability index of "L19S" ?
Given back: 1.69

Asked: Please give the measured protein stability index for this variant: "F15M"
Given back: 1.43

Asked: Which protein stability index value is on record for "D9E" ?
Given back: 2.19
